Where these numbers come from: paper PMC9529664

Residues, ends and D or L forms follow the SMILES beside them.
Hi! I'm sharing some IC50 results obtained with UniProt:P27487.
Sequence (P27487 whole entry, species assumed): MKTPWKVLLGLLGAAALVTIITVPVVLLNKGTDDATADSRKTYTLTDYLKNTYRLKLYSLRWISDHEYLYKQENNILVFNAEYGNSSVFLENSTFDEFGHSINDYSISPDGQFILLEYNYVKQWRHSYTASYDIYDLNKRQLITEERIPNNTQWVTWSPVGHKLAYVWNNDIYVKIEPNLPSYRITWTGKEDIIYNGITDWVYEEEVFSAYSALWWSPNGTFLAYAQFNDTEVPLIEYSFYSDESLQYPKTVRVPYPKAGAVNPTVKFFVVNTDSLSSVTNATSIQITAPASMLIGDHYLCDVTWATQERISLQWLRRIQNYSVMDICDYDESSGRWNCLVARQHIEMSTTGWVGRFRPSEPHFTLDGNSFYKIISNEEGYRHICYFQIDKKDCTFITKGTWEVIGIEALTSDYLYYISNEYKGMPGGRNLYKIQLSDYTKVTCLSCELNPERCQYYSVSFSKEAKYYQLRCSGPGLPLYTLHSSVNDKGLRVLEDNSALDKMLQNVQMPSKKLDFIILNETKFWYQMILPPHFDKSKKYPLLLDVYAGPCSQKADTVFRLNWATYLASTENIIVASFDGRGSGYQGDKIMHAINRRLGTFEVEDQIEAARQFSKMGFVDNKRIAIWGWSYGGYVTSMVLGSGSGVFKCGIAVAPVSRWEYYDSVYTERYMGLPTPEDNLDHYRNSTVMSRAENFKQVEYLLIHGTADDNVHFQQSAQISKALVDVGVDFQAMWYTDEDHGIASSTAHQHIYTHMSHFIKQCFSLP
The reply should be a number in mM, with the unit left off.

The following compounds have reported results that may help.
Compound	Unit text	IC50
CSCC[C@H](NC(=O)[C@H](Cc1c[nH]cn1)NC(=O)[C@H](CC(N)=O)NC(=O)[C@H](CC(N)=O)NC(=O)[C@H](Cc1c[nH]cn1)NC(=O)[C@H](CCCCN)NC(=O)[C@H](CO)NC(=O)[C@H](CC(C)C)NC(=O)[C@H](CC(=O)O)NC(=O)[C@@H]1CCCN1)C(=O)O [D35] (H-PDLSKHNNHM-OH)	mM	3.88
CC(C)[C@H](NC(=O)[C@H](C)NC(=O)[C@H](CCC(=O)O)NC(=O)[C@H](C)NC(=O)[C@@H]1CCCN1C(=O)[C@@H](N)CCC(=O)O)C(=O)NCC(=O)N[C@@H](CC(=O)O)C(=O)N[C@@H](Cc1c[nH]c2ccccc12)C(=O)N[C@@H](CCCNC(=N)N)C(=O)O [D37] (H-EPAEAVGDWR-OH)	mM	0.1
C[C@@H](O)[C@H](NC(=O)[C@H](CC(N)=O)NC(=O)CNC(=O)[C@H](Cc1ccccc1)NC(=O)[C@@H]1CCCN1)C(=O)N[C@@H](Cc1c[nH]cn1)C(=O)N[C@@H](CC(N)=O)C(=O)N[C@@H](CC(N)=O)C(=O)N[C@@H](Cc1ccccc1)C(=O)N[C@@H](CCCCN)C(=O)O [D1] (H-PFGNTHNNFK-OH)	mM	8.51

Would you kindly look at the next entry?
Entry CC[C@H](C)[C@H](N)C(=O)N1CCC[C@H]1C(=O)N[C@@H](Cc1c[nH]cn1)C(=O)N[C@@H](CCC(=O)O)C(=O)N[C@@H](CO)C(=O)N[C@H](C(=O)N[C@@H](CC(=O)O)C(=O)N[C@H](C(=O)N[C@H](C(=O)N[C@@H](CCCCN)C(=O)O)[C@@H](C)CC)C(C)C)C(C)C [D22] (H-IPHESVDVIK-OH) : reported IC50 = ?
2.69
